Origin of the recorded values: ChEMBL document CHEMBL1133926

# tested_system: Plasminogen (Homo sapiens, UniProt P00747)
# Sequence (P00747 97-580 limits assumed): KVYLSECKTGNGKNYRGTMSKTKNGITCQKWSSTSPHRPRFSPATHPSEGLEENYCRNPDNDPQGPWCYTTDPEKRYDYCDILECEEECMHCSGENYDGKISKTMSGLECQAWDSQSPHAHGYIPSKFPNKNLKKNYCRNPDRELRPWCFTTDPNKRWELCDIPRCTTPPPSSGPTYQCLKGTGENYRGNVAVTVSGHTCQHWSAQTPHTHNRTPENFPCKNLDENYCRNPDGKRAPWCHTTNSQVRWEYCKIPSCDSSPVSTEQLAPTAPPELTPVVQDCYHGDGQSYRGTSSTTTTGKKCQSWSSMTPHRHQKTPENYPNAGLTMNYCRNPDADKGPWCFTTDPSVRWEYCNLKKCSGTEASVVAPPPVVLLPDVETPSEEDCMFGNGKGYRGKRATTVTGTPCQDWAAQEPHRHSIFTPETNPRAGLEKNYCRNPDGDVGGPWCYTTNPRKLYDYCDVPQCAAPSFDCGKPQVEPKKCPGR
# Sequence (P00747 581-810 limits assumed): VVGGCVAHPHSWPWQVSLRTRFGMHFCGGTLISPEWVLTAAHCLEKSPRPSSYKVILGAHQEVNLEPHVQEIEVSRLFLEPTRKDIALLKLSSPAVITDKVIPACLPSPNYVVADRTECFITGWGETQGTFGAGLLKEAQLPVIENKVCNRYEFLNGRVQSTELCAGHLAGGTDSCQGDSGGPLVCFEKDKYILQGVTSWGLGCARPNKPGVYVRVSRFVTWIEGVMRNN

structure_string	Ki, µM
N=C(N)c1ccc2nc(-c3cc(Cl)cc(-c4cccc(N)c4)c3O)[nH]c2c1	3.2

###

# tested_system: Serine protease 1 (Homo sapiens)
# Sequence (P07477 whole entry): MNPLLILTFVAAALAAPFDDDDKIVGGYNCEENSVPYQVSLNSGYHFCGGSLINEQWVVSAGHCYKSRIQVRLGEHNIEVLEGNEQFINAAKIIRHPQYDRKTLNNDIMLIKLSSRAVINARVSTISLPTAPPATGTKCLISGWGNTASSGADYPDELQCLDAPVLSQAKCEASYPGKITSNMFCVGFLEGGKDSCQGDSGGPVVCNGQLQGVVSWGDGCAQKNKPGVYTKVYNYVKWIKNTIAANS
# test_description: Relative binding affinity towards Trypsin

structure_string	Selectivity
N=C(N)c1ccc2[nH]c(-c3cc(CC(=O)O)cc(-c4cccc(-c5nn[nH]n5)c4)c3O)cc2c1	3
N=C(N)c1ccc2[nH]c(-c3cc(CC(=O)O)cc(-c4ccccc4)c3O)cc2c1	1
N=C(N)c1ccc2[nH]c(-c3cc(CC(=O)O)cc(-c4cccc(N)c4)c3O)cc2c1	83
N=C(N)c1ccc2[nH]c(-c3cc(-c4nn[nH]n4)cc(-c4cccc([N+](=O)[O-])c4)c3O)cc2c1	40
